# SILAC ratio, Bri3bp per entry
Target: AEA-DA lipid probe targets in Neuro2a cells (Mus musculus, UniProt Q8BXV2)
Sequence (Q8BXV2 whole entry): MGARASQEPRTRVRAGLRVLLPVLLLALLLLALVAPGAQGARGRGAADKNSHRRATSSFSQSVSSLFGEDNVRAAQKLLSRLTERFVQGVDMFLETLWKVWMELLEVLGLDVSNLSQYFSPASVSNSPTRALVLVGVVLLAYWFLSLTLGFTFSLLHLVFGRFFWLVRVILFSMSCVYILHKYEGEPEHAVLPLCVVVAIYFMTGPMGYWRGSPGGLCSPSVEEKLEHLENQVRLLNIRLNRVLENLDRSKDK
Settings: competitor 25 μM
Lab note: jot the number down without any unit.

// known answers, use as guide
compound	measured target	observed result
CN1CCN(C(=O)c2[nH]c3ccc([N+](=O)[O-])cc3c2-c2ccccc2)CC1 [MJN228]	AEA-DA lipid probe targets in Neuro2a cells (Mus musculus, UniProt Q8BXV2)	1.5
C=CCN(C)CCCCCCOc1ccc(C(=O)c2ccc(Br)cc2)c(F)c1 [Ro 48-8071, reference compound]	AEA-DA lipid probe targets in Neuro2a cells (Mus musculus, UniProt Q8BXV2)	1.1
O=C(/C=C/c1cccnc1)NCCCCC1CCN(C(=O)c2ccccc2)CC1 [FK-866, reference compound]	AEA-DA lipid probe targets in Neuro2a cells (Mus musculus, UniProt Q8BXV2)	1.1

Okay, now this compound:
Please give the measured SILAC ratio, Bri3bp for this compound: CN1CCN(C(=O)c2c(-c3ccccc3)c3cc([N+](=O)[O-])ccc3n2C)CC1 [KML110]
1.6
